Quick reference: EC50 of the listed items.
- Test target: T1, extracellular domain (ECD) of human CD47 (19aa-139aa) with C-terminal 6xHis tag (human, UniProt Q08722 19-139)
- T1 construct: also called recombinant CD47; recombinant human CD47
- T1 sequence (Q08722 other isoform, or with tags, fused parts or gaps limits assumed): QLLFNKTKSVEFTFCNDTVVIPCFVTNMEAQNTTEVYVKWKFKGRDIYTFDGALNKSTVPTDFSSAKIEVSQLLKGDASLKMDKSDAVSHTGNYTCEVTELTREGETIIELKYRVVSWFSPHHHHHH
- Experiment notes: ELISA, coated recombinant CD47; EC50 as grade, legend the 6th table, row 26

M.1D15E11 (antibody, human IgG1, kappa, V domains shown, Chimeric: mouse variable domains, human IgG1 and human kappa constant regions; also called Chimeric antibody 1D15E11) VH: EVQLQQSGPELVKPGAPVKMSCKASGYTFTSYVMHWVKQKPGQGLEWIGYIDPYNDGTKYNEKFKGKATLTSDKSSSTAYMELSSLTSEDSAVYYCSRGGMARRSFDYWGQGTTLTVSS VL: DIQMTQSPASQSASLGESVTITCLASQTIGTWLTWYQQKPGKSPQLLIYAATTLADGVPSRFSGSGSGTKFSFKISSLQAEDFVSYYCQQLYSTPWTFGGGTKLEIKR = 0.01 to 0.1 nM
R.1H3 (antibody, human IgG1, kappa, V domains shown, Chimeric: rabbit variable domains, human IgG1 and human kappa constant regions) VH: QSLEESGGDLVKPGASLTLTCTASGFSFSSGYYMCWVRQAPGKGLEWIACIYMRSGDTYLASWAKGQFTISKTSSTTVTLQMTSLTAADTATYFCGRGGTSYALNLWGQGTLVTVSS VL: DVVMTQTPASVSEPVGGTVTINCQASQSISNECSWYQQKPGQPPKLLIYRASTLESGVPSRFSGSGSGTEFTLTISDLESADAATYYCQSTYYGTTGNTFGGGTEVVVKR = > 0.5 nM

Moving on to another binder below.
### Prompt Given M.30A5C6 (antibody, human IgG1, kappa, V domains shown, Chimeric: mouse variable domains, human IgG1 and human kappa constant regions) VH: EVQLQQSGAELVKPGASVKLSCTASGFNIEDTYMHWVKQRPEQGLEWIGRIDPANGNTKYDPKFQGKATVTADTSSNTAYLQLSSLTSEDTAVYCCARGDGHYVGGLNYWGQGTSLTVSS VL: DIQMNQSPSSLSASLGDTITITCHASQNINVWLSWYQQKPGNIPKLLIYKASNLHTGVPSRFSGSGSGTGFTLTISSLQPEDIATYYCQQGQNYPYTFGGGTKLEIKR , state its recorded EC50.
### Response 0.01 to 0.1 nM

Source of measurements: patent US20240174750A1
